Target: T1, EsCas13d, nuclease-dead (Eubacterium siraeum, UniProt B0MS50, R295A;H300A;R849A;H854A)
T1 sequence: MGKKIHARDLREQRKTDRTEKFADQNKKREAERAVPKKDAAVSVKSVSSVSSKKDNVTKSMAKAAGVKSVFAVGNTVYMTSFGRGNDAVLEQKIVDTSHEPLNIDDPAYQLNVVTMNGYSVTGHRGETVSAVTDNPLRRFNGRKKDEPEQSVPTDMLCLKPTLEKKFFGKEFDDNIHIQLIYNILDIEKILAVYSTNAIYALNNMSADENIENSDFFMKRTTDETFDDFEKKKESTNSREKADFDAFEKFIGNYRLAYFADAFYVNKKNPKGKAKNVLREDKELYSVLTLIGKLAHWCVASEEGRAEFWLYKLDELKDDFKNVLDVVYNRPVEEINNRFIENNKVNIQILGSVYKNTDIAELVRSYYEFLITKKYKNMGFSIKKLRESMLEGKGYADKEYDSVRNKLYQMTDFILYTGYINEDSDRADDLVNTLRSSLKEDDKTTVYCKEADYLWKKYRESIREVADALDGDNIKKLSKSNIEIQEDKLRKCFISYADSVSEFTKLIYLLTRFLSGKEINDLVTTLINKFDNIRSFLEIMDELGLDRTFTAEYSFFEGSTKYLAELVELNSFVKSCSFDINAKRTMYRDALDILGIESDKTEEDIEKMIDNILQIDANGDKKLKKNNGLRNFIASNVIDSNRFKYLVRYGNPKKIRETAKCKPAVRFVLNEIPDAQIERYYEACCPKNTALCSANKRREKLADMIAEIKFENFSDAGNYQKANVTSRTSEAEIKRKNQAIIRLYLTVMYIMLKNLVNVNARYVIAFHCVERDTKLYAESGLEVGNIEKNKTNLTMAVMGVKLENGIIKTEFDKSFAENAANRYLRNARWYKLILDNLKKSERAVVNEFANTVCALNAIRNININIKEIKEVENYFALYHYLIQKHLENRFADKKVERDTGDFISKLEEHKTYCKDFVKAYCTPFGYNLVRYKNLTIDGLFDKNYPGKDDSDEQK
Assay: crRNA (strand 1, pre-loaded); Mg2+; 40 mM Tris-HCl pH 7.5, 150 mM NaCl, 6 mM MgCl2, 1 mM DTT, 0.1% Tween-20, 0.2 mg/ml BSA; 25 C; 10 min per concentration, then washed
Conditions: tags: His6-TwinStrep-SUMO cleaved; N-terminal SNAP kept (SNAP-Surface 488); label: 3' end held by stalled T7 RNA polymerase
pKd: −log10 of the molar value.
Recorded pKd, one value per entry.

binder	pKd
target 1 MT 5'PFS AAA 3'PFS ACU (mixed) RNA 1: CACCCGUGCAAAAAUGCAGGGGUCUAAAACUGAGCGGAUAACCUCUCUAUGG RNA 2: GGGAAUGGAUCCACAUCUACGAAUUCAAACCAUAGAGAGGUUAUCCGCUCAACUAGAUCGGAAGAGCACACGU	7.92
target 2 MT 5'PFS GAG 3'PFS ACG (mixed) RNA 1: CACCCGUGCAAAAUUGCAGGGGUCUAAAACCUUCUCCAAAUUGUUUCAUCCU RNA 2: GGGAAUGGAUCCACAUCUACGAAUUCGAGAGGAUGAAACAAUUUGGAGAAGACGAGAUCGGAAGAGCACACGU	8.17
target 1 insG 3' of 22,insA 3' of 3 (mixed) RNA 1: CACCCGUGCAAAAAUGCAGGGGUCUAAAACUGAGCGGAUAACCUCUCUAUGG RNA 2: GGGAAUGGAUCCACAUCUACGAAUUCGUACGCAUAGAGAGGUUAUCCGCUACACCGAGAUCGGAAGAGCACACGU	7.59
target 1 U10A,G12A (mixed) RNA 1: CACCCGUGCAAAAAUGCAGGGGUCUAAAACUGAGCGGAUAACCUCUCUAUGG RNA 2: GGGAAUGGAUCCACAUCUACGAAUUCGUACCAUAGAGAGAUAAUCCGCUCACCGAGAUCGGAAGAGCACACGU	8.23
target 2 MT 5'PFS AAU 3'PFS ACG (mixed) RNA 1: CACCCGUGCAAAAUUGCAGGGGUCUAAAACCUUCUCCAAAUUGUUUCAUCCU RNA 2: GGGAAUGGAUCCACAUCUACGAAUUCAAUAGGAUGAAACAAUUUGGAGAAGACGAGAUCGGAAGAGCACACGU	8.26
target 2 MT 5'PFS CUU 3'PFS AAA (mixed) RNA 1: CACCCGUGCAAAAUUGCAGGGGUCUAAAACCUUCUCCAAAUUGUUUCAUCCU RNA 2: GGGAAUGGAUCCACAUCUACGAAUUCCUUAGGAUGAAACAAUUUGGAGAAGAAAAGAUCGGAAGAGCACACGU	8.54
target 1 insG 3' of 2 (mixed) RNA 1: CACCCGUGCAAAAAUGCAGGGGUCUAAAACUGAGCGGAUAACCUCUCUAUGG RNA 2: GGGAAUGGAUCCACAUCUACGAAUUCGUACCAUAGAGAGGUUAUCCGCUCGACCGAGAUCGGAAGAGCACACGU	8.07
